# EXPERIMENTAL SYSTEM: Bovine Adrenal Estrogen Sulfotransferase (Bos taurus, UniProt P19217)
# Construct: The enzyme was isolated from the bovine adrenals; from tissue; host or cells: bovine adrenals; purified by ammonium sulfate fractionation and chromatography on DEAE-cellulose or DEAE-Sephadex A-50
# Sequence (P19217 whole entry): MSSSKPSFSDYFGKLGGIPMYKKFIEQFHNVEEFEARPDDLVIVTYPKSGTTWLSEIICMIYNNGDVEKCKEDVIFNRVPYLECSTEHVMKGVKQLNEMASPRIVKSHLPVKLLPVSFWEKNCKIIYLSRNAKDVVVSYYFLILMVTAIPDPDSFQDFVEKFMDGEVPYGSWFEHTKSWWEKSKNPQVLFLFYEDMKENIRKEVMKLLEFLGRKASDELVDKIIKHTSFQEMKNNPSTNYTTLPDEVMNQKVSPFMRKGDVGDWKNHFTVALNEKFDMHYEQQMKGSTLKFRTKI
# PROTOCOL TEXT: Inhibition of bovine adrenal estrogen sulfotransferase (estrone sulfurylation)
# Type: biochemical
# SETUP CONDITIONS: inhibitors 3 to 6, 12 and 16; from kinetic experiments; read-out: Ki (Table I), determined experimentally
# Description: Materials are evaluated for activity as estrogen sulfotransferase inhibitors by the method of Rozhin et al, Journal of Biological Chemistry, 252:7214-7220 (October 25, 1977), herein incorporated by reference. Isolation of Estrogen Sulfotransferase (EC 2.8.2.4). […] Standard Enzyme Assay. […] After drying the sheet, samples were visualized by spraying with methylene blue (25 mg in 100 ml of 0.05 N H2 SO4), punched out with a cork borer, and counted in 10 ml of dioxane counting liquid. […]
Would you mind telling me the reported pKi of each entry?
Please note pKi is a logarithmic value: minus log10 of concentration in mol/L. Answer with that number alone.

Looking up C[C@]12CC[C@@H]3c4ccc(O)cc4CC[C@H]3[C@@H]1CC[C@@H]2O [1,3,5(10)Estratriene-3,17β-diol] , I see its pKi listed as 5.21

Measured pKi of C[C@@]12CCC[C@H]1[C@@H]1CCc3cc(O)ccc3[C@H]1CC2 [1,3,5(10)Estratriene-3-ol] : 5.46

So for COc1ccc2c(c1)CC[C@@H]1[C@@H]2CC[C@]2(C)[C@@H](O)CC[C@@H]12 [3-Methoxy-1,3,5(10)estratriene-17β-ol] , the logged pKi turned out to be 5.32
